Experimental System: T1, mouse SAS1B (mouse, UniProt Q6HA09 24-435, limits assumed)
T1 sequence (looked up): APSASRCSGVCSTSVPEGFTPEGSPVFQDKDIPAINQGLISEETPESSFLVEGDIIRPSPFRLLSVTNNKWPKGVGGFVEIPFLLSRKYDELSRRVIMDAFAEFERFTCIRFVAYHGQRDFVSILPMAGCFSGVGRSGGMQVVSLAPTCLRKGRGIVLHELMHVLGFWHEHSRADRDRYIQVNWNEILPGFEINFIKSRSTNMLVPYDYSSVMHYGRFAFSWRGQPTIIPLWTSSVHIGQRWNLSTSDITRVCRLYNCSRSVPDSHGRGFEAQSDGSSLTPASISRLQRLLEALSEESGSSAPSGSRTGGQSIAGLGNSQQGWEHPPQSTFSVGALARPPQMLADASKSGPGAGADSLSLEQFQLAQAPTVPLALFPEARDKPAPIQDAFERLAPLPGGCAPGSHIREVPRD
Protocol Text: summary table (Table 1)

Binder: anti-human SAS1B murine monoclonal antibody SB4 (antibody, IgG2a, V domains shown, Mouse hybridoma antibody, isotype IgG2a-k; also called SB4 mAb) VH: EVQLQQSGPELVKPGSSVKISCKPSGYTFTDYNMVWMKQSHGKSLEWIGAINPNNGGTTYNQKFKGKATLTVDKSSSTAYMELRSLTSEDSAVYYCAPNWDWFAYWGQGTLVTVSA VL: DVLMTQTPLSLPVSLGDQASISCRSSQSILHSNGNTYLEWYLQKPGQSPKLLIYKVSNRFSGVPDRFSGSGSGTDFTLKISRVEAEDLGVYYCFQGSHVPFTFGSGTKLEIK
binding result: no binding
--
Binder: anti-human SAS1B murine monoclonal antibody SB7 (antibody, IgG2b, V domains shown) VH: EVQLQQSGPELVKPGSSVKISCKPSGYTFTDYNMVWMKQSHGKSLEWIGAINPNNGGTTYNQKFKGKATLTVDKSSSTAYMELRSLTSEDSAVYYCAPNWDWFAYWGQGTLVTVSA VL: DVLMTQIPLSLPVSLGDQASISCRSSQSILHSNGNTYLEWYLQKPGQSPKLLIYKVSNRFSGVPDRFSGSGSGTDFTLKISRVEAEDLGVYYCFQGSHVPFTFGSGTKLEIK
binding result: no binding
